Data origin, for the record: patent US20250186614A1

# assay details: Example 4: dose response of FKBP constructs 160-255, Ec50, Ec90 and fold change (raw and normalized to mCherry)
# Type: cell-based
# particulars: FKBP constructs 160-255; not normalized; read-out: EC90
Assign log10 of EC90 to each entry below.
// stored as log10 of EC90 expressed in nM

Specify measured log10 of EC90 for FKBP-222 (protein, Description of sequence: Construct Name: FKBP-222; Mutation(s): Q72R Q84E A117W DRD P4W T25R) HCWIKSRKGDVLHMHYTGKLEDGREFDSSLPRNQPFVFSLGTGEVIKGWDQGLLGMCEGEKRKLVIPSELGYGERGWPPKIPGGATLVFEVELLKIER . 2.79

Specify measured log10 of EC90 for FKBP-232 (protein, Description of sequence: Construct Name: FKBP-232; Mutation(s): Q72R Q84E A117W V85R DRD G63M M54A) HCPIKSRKGDVLHAHYTGKLEDMTEFDSSLPRNQPFVFSLGTGERIKGWDQGLLGMCEGEKRKLVIPSELGYGERGWPPKIPGGATLVFEVELLKIER . 2.97

Specify measured log10 of EC90 for FKBP-191: FKBP13 DRD-AcGFP construct of Table 10 (protein, Description of sequence: Construct Name: FKBP-191; Mutation(s): Q72R Q84E A117W V85R DRD G49S) HCPIKSRKSDVLHMHYTGKLEDGTEFDSSLPRNQPFVFSLGTGERIKGWDQGLLGMCEGEKRKLVIPSELGYGERGWPPKIPGGATLVFEVELLKIER . 2.56

Specify measured log10 of EC90 for FKBP-211 (protein, Description of sequence: Construct Name: FKBP-211; Mutation(s): Q72R Q84E A117W V85R DRD M54A D62S) HCPIKSRKGDVLHAHYTGKLESGTEFDSSLPRNQPFVFSLGTGERIKGWDQGLLGMCEGEKRKLVIPSELGYGERGWPPKIPGGATLVFEVELLKIER . 2.66

Specify measured log10 of EC90 for FKBP-193 (protein, Description of sequence: Construct Name: FKBP-193; Mutation(s): Q72R Q84E A117W V85R DRD D90A) HCPIKSRKGDVLHMHYTGKLEDGTEFDSSLPRNQPFVFSLGTGERIKGWAQGLLGMCEGEKRKLVIPSELGYGERGWPPKIPGGATLVFEVELLKIER . 4.11

Specify measured log10 of EC90 for FKBP-198: FKBP13 DRD-AcGFP construct of Table 10 (protein, Description of sequence: Construct Name: FKBP-198; Mutation(s): Q72R Q84E A117W V85R DRD K101W) HCPIKSRKGDVLHMHYTGKLEDGTEFDSSLPRNQPFVFSLGTGERIKGWDQGLLGMCEGEWRKLVIPSELGYGERGWPPKIPGGATLVFEVELLKIER . 2.40

Specify measured log10 of EC90 for FKBP-227 (protein, Description of sequence: Construct Name: FKBP-227; Mutation(s): Q72R Q84E A117W DRD E137R) HCPIKSRKGDVLHMHYTGKLEDGTEFDSSLPRNQPFVFSLGTGEVIKGWDQGLLGMCEGEKRKLVIPSELGYGERGWPPKIPGGATLVFEVELLKIRR . 2.47

Specify measured log10 of EC90 for FKBP-233: FKBP13 DRD-AcGFP construct of Table 10 (protein, Description of sequence: Construct Name: FKBP-233; Mutation(s): Q72R Q84E A117W DRD D90T) HCPIKSRKGDVLHMHYTGKLEDGTEFDSSLPRNQPFVFSLGTGEVIKGWTQGLLGMCEGEKRKLVIPSELGYGERGWPPKIPGGATLVFEVELLKIER . 2.43

Specify measured log10 of EC90 for FKBP-177 (protein, Description of sequence: Construct Name: FKBP-177; Mutation(s): Q72R Q84E A117W DRD M54AL80G) HCPIKSRKGDVLHAHYTGKLEDGTEFDSSLPRNQPFVFSGGTGEVIKGWDQGLLGMCEGEKRKLVIPSELGYGERGWPPKIPGGATLVFEVELLKIER . 4.27

Specify measured log10 of EC90 for FKBP-224 (protein, Description of sequence: Construct Name: FKBP-224; Mutation(s): Q72R Q84E A117W DRD P43R) HCRIKSRKGDVLHMHYTGKLEDGTEFDSSLPRNQPFVFSLGTGEVIKGWDQGLLGMCEGEKRKLVIPSELGYGERGWPPKIPGGATLVFEVELLKIER . 1.90

Specify measured log10 of EC90 for FKBP-210 (protein, Description of sequence: Construct Name: FKBP-210; Mutation(s): Q72R Q84E A117W V85R DRD M54A E98L) HCPIKSRKGDVLHAHYTGKLEDGTEFDSSLPRNQPFVFSLGTGERIKGWDQGLLGMCLGEKRKLVIPSELGYGERGWPPKIPGGATLVFEVELLKIER . 2.28
